- systemName: Ba/F3 EGFR Del19/C797S mutants (Homo sapiens, UniProt P00533, C797S, cells depend on it, form not given)
- Sequence (P00533 with tags, fused parts or gaps DEL746-750/C797S, form open): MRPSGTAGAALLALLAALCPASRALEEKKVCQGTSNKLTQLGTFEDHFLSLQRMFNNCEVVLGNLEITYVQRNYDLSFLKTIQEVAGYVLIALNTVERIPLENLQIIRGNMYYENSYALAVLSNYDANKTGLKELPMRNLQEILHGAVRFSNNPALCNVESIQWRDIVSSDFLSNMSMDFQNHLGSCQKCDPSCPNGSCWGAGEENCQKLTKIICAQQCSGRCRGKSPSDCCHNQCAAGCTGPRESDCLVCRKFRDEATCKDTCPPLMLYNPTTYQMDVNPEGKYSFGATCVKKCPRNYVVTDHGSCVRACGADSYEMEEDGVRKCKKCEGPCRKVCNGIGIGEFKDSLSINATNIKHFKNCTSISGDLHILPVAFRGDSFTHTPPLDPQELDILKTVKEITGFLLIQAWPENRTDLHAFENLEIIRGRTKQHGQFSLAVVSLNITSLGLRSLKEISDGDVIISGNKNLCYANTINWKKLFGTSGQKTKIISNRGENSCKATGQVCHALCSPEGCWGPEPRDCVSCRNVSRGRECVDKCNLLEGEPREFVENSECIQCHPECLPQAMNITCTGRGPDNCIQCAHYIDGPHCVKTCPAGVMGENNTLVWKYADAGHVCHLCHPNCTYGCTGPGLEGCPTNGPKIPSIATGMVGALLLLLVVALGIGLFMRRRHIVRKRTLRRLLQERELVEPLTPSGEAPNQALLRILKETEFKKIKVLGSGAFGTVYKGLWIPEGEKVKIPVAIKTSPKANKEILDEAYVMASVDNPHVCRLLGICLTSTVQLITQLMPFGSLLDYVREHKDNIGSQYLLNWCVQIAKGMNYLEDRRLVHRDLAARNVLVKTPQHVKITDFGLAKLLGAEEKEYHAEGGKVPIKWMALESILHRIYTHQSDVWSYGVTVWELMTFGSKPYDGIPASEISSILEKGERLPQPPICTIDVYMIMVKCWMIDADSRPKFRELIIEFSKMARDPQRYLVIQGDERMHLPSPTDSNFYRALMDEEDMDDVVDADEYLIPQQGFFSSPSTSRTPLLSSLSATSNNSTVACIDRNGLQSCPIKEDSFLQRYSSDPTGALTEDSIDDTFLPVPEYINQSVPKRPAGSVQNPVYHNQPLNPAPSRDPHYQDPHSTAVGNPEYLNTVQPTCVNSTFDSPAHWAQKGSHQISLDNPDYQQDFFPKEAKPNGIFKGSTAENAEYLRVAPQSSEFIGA
- testName: CellTiter-Glo cell viability, Ba/F3 EGFR Del19/C797S cells
- Type: cell-based, murine
- measurementConditions: 72 hours, read-out: Ba/F3 EGFR mutant cell (IC50, nM) D/C
assayEndpoint: GI50 (nM)
Give the quantity in nM, number only.

Could you share which GI50 value was measured for CCc1cc(Nc2ncc(Br)c(Nc3ccc4nccnc4c3N(C)S(C)(=O)=O)n2)c(OC)cc1N1CC2(C1)CN(C(C)C)C2 ? 14

Please give the measured GI50 for this compound: CCCc1cc(Nc2ncc(Br)c(Nc3ccc4nccnc4c3N(C)S(C)(=O)=O)n2)c(OC)cc1N1CCC(N(C)C)CC1 17

Recorded GI50 for COc1cc(N2CCOCC2)c(C)cc1Nc1ncc(Br)c(Nc2ccc3nccnc3c2NS(C)(=O)=O)n1 , please? 537

Look up GI50 for this compound: CCc1cc(Nc2ncc(Cl)c(Nc3ccc4nccnc4c3N(C)S(C)(=O)=O)n2)c(OC)cc1N1CC2(C1)CN(C(C)C)C2 18

###

- systemName: Ba/F3 EGFR L858R/C797S mutants (Homo sapiens, UniProt P00533, C797S/L858R, cells depend on it)
- Sequence (P00533 whole entry C797S/L858R): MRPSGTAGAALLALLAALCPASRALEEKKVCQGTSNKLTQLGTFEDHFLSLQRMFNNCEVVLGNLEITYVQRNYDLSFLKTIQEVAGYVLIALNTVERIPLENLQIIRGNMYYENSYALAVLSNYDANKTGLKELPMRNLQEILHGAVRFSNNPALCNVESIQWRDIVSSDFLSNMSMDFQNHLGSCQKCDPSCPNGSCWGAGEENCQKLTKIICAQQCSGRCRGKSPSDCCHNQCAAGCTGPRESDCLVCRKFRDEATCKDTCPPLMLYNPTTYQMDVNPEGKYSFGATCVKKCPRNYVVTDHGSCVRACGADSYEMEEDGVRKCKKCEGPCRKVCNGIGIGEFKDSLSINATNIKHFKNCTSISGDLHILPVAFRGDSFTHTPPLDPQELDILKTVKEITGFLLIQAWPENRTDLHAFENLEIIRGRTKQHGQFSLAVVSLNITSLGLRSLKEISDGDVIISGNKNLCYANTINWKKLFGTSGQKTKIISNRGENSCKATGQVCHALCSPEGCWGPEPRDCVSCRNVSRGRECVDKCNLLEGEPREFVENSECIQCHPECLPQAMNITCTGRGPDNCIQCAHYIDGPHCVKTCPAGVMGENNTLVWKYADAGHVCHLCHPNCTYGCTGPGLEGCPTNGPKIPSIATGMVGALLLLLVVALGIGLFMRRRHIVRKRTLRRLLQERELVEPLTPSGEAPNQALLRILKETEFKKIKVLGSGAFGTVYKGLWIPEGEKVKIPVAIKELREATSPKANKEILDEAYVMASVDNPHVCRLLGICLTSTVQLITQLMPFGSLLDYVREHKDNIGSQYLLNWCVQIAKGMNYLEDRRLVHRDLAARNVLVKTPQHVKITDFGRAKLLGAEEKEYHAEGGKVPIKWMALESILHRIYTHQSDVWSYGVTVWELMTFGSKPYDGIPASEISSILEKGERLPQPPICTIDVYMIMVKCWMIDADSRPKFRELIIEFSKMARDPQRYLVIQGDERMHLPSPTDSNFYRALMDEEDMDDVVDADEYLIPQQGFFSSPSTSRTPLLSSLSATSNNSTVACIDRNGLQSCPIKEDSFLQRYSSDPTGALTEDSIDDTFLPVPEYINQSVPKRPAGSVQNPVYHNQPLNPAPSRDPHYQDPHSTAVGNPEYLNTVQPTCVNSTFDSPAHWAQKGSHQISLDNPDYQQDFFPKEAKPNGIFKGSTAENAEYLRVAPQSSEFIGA
- testName: CellTiter-Glo cell viability, Ba/F3 EGFR L858R/C797S cells
- Type: cell-based, murine
- measurementConditions: 72 hours, read-out: Ba/F3 EGFR mutant cell (IC50, nM) L/C
Please respond with met when measured GI50 is strictly beneath 40 nM, and with not met in all other cases.

{"compound": "COc1cc(N2CCC(N3CCN(C)CC3)CC2)ccc1Nc1ncc(Cl)c(Nc2ccc3c(c2NS(C)(=O)=O)OCCO3)n1 [Example C9]", "assignedClass": "not met"}
{"compound": "COc1cc(N2CCC(N(C)C)CC2)c(C)cc1Nc1ncc(Br)c(Nc2cccc(OC)c2N(C)S(C)(=O)=O)n1 [Example C5]", "assignedClass": "not met"}

Given the entry CCCc1cc(Nc2ncc(Br)c(Nc3ccc4nccnc4c3N(C)S(C)(=O)=O)n2)c(OC)cc1N1CCC(N(C)C)CC1 [Example B24] , would its reported GI50 be below 40 nM? not met

Consider CCc1cc(Nc2ncc(Cl)c(Nc3ccc4nccnc4c3NS(C)(=O)=O)n2)c(OC)cc1N1CCC(N2CCN(C)CC2)CC1 [Example A2] . Does its GI50 lie strictly below 40 nM? met

Problem: For the compound COc1cc(C2CCNCC2)c(C)cc1Nc1ncc(Br)c(Nc2ccc3nccnc3c2NS(C)(=O)=O)n1 [Example B11] , is GI50 under 40 nM? not met

###

Readings of GI50 for the listed compounds
- systemName: Ba/F3 EGFR Wild-type (Homo sapiens)
- testName: CellTiter-Glo cell viability, Ba/F3 EGFR wild-type cells
- Format: cell-based, murine
- measurementConditions: 72 hours, read-out: Ba/F3 EGFR mutant cell (IC50, nM) WT
Respond numerically; units are nM and should not be typed.

{"compound": "CCc1cc(Nc2ncc(Cl)c(Nc3ccc(OC)cc3NS(C)(=O)=O)n2)c(OC)cc1N1CCC(N2CCOCC2)CC1 [Example C14]", "resultUnit": "nM", "GI50": 415}

// moving on: another record for GI50
Record lookup: for Ba/F3 EGFR Wild-type (Homo sapiens), what GI50 belongs to COc1cc(N2CCNCC2)ccc1Nc1ncc(Cl)c(Nc2cccc(OC)c2NS(C)(=O)=O)n1 [Example C6] ? 626

###

- systemName: Ba/F3 EGFR Wild-type (Homo sapiens, UniProt P00533)
- testName: CellTiter-Glo cell viability, Ba/F3 EGFR wild-type cells
- Assay type: cell-based, murine
- measurementConditions: 72 hours, read-out: Ba/F3 EGFR mutant cell (IC50, nM) WT
assayEndpoint: GI50 (nM)
Give the quantity in nM, number only.

{"compound": "CCCc1cc(Nc2ncc(F)c(Nc3ccc4nccnc4c3NS(C)(=O)=O)n2)c(OC)cc1N1CCC(N2CCN(C)CC2)CC1", "GI50 [nM]": 603}
{"compound": "CN[C@@H]1CN(c2ccc(Nc3ncc(Cl)c(Nc4ccc5nccnc5c4NS(C)(=O)=O)n3)c(OC)c2)C[C@H]1F", "GI50 [nM]": 1720}
{"compound": "CCc1cc(Nc2ncc(Cl)c(Nc3ccc4nccnc4c3N(C)S(C)(=O)=O)n2)c(OC)cc1N1CCC(N2CCN(C)CC2)CC1", "GI50 [nM]": 347}
{"compound": "CCc1cc(Nc2ncc(Cl)c(Nc3ccc4nccnc4c3NS(C)(=O)=O)n2)c(OC)cc1N1CCC(N2CCN(C)CC2)CC1", "GI50 [nM]": 381}
{"compound": "CCCc1cc(Nc2ncc(Br)c(Nc3ccc4nccnc4c3N(C)S(C)(=O)=O)n2)c(OC)cc1N1CCC(N(C)C)CC1", "GI50 [nM]": 908}

Please look up its GI50: COc1cc(N2CCC(N3CCN(C)CC3)CC2)c(C)cc1Nc1ncc(F)c(Nc2ccc3nccnc3c2NS(C)(=O)=O)n1 521

// GI50 lookup, key: CCc1cc(Nc2ncc(Br)c(Nc3ccc4nccnc4c3N(C)S(C)(=O)=O)n2)c(OC)cc1N1CCC(N2CC3CCC2CN3C)CC1 (centres unmarked) 601

Entry CCc1cc(Nc2ncc(Cl)c(Nc3ccc4nccnc4c3NS(C)(=O)=O)n2)c(OC)cc1N1CCC(N2CC3CCC2CN3C)CC1 (centres unmarked) : reported GI50 = ? 734

Which GI50 is listed for COc1cc(N2CCC(N(C)C)CC2)c(C)cc1Nc1ncc(Br)c(Nc2ccc3nccnc3c2NS(C)(=O)=O)n1 ? 302

Would you kindly share the measured GI50 for COc1cc(C2CCNCC2)c(F)cc1Nc1ncc(Cl)c(Nc2ccc3nccnc3c2NS(C)(=O)=O)n1 ? 1730

Name the reported GI50 value associated with the compound COc1cc(N2CCC(N3CCN(C)CC3)CC2)c(C)cc1Nc1ncc(Cl)c(Nc2cccc(OC)c2NS(C)(=O)=O)n1 605

###

- systemName: Ba/F3 EGFR Del19/T790M/C797S mutants (Homo sapiens, UniProt P00533, T790M/C797S, cells depend on it, form not given)
- Sequence (P00533 with tags, fused parts or gaps DEL746-750/T790M/C797S, form open): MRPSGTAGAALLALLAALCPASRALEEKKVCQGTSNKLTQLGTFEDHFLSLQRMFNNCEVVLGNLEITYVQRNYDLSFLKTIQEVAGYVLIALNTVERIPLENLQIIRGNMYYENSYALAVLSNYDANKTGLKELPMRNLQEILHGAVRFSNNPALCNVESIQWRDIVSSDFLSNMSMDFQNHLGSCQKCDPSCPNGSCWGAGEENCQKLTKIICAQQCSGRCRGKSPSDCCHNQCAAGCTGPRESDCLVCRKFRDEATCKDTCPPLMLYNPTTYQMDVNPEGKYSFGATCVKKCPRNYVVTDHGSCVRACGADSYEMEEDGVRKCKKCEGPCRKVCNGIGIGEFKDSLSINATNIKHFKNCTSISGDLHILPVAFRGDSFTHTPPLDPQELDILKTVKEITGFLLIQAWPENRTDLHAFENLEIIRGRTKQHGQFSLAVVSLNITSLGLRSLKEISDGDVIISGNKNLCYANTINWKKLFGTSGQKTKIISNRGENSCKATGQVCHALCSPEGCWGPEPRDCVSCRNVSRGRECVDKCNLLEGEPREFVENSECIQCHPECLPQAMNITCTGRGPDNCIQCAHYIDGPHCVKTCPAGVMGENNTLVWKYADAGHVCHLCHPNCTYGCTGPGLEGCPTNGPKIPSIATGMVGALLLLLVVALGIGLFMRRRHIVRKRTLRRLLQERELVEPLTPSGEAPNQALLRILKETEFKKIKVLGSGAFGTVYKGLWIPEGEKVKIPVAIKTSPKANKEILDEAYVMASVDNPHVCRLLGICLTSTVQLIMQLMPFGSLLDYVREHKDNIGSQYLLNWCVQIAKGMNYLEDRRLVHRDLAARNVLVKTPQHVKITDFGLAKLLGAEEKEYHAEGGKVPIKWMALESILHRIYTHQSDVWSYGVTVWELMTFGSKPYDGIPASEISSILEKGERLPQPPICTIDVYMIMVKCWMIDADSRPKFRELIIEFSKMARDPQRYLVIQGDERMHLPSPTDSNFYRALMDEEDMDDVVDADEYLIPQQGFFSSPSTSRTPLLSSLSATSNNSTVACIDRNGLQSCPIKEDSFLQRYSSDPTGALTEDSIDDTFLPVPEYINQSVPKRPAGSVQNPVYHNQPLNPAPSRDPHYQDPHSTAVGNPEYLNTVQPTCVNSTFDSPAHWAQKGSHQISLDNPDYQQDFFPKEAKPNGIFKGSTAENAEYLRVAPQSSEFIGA
- testName: CellTiter-Glo cell viability, Ba/F3 EGFR Del19/T790M/C797S cells
- Format: cell-based, murine
- measurementConditions: 72 hours, read-out: Ba/F3 EGFR mutant cell (IC50, nM) D/T/C
assayEndpoint: GI50 (nM)
Report the figure in nM without appending any unit label.

{"molecule": "COc1cc(N2CCC(N3CCN(C)CC3)CC2)ccc1Nc1ncc(Cl)c(Nc2ccc3nccnc3c2NS(C)(=O)=O)n1 [Example A3]", "GI50 / nM": 48}
{"molecule": "COc1cc(N2CCC(N3CCCC3)CC2)c(C)cc1Nc1ncc(Cl)c(Nc2cccc(OC)c2NS(C)(=O)=O)n1 [Example C10]", "GI50 / nM": 9}

API: the following record is the query input.
Which GI50 value belongs to COc1cc(N2CCC(N3CCN(C)CC3)CC2)c(C)cc1Nc1ncc(Cl)c(Nc2ccc3nccnc3c2NS(C)(=O)=O)n1 [Example A1] ? 6

###

- systemName: Ba/F3 EGFR Wild-type (Homo sapiens)
- testName: CellTiter-Glo cell viability, Ba/F3 EGFR wild-type cells
- Assay type: cell-based, murine
- measurementConditions: 72 hours, read-out: Ba/F3 EGFR mutant cell (IC50, nM) WT
- Protocol: In order to evaluate an inhibitory ability on wild-type Ba/F3 EGFR and Ba/F3 EGFR mutations in Ba/F3 cell lines by the compounds of Formula 1, the experiment was carried out as described below. The measurement of activities on Ba/F3 cells harboring wild-type EGFR and EGFR mutants by the compounds of the present invention were determined utilizing the CELLTITER-GLO™ system from Promega, as follows. […]
Below, each of the compounds is paired with its reported GI50 value.
Answer in nM, number only, no unit symbol.

Worked examples, 2 compounds total:
{"compound": "CCc1cc(Nc2ncc(Br)c(Nc3ccc4nccnc4c3N(C)S(C)(=O)=O)n2)c(OC)cc1N1CCN(C2CCN(C)CC2)CC1 [Example A49]", "resultUnit": "nM", "GI50": 243}
{"compound": "COc1cc(N2CCN([C@@H]3CCN(C)C[C@@H]3F)CC2)ccc1Nc1ncc(Cl)c(Nc2ccc3nccnc3c2NS(C)(=O)=O)n1 [Example A36]", "resultUnit": "nM", "GI50": 657}

Can you look up the measured GI50 of CCc1cc(Nc2ncc(Cl)c(Nc3ccc4nccnc4c3N(C)S(C)(=O)=O)n2)c(OC)cc1N1CCC(N2CCCC2)CC1 [Example A43] for me? 507

###

# log10(GI50) listing for each entry below
- systemName: Ba/F3 EGFR L858R/T790M/C797S mutants (Homo sapiens, UniProt P00533, T790M/C797S/L858R, cells depend on it)
- Sequence (P00533 whole entry T790M/C797S/L858R): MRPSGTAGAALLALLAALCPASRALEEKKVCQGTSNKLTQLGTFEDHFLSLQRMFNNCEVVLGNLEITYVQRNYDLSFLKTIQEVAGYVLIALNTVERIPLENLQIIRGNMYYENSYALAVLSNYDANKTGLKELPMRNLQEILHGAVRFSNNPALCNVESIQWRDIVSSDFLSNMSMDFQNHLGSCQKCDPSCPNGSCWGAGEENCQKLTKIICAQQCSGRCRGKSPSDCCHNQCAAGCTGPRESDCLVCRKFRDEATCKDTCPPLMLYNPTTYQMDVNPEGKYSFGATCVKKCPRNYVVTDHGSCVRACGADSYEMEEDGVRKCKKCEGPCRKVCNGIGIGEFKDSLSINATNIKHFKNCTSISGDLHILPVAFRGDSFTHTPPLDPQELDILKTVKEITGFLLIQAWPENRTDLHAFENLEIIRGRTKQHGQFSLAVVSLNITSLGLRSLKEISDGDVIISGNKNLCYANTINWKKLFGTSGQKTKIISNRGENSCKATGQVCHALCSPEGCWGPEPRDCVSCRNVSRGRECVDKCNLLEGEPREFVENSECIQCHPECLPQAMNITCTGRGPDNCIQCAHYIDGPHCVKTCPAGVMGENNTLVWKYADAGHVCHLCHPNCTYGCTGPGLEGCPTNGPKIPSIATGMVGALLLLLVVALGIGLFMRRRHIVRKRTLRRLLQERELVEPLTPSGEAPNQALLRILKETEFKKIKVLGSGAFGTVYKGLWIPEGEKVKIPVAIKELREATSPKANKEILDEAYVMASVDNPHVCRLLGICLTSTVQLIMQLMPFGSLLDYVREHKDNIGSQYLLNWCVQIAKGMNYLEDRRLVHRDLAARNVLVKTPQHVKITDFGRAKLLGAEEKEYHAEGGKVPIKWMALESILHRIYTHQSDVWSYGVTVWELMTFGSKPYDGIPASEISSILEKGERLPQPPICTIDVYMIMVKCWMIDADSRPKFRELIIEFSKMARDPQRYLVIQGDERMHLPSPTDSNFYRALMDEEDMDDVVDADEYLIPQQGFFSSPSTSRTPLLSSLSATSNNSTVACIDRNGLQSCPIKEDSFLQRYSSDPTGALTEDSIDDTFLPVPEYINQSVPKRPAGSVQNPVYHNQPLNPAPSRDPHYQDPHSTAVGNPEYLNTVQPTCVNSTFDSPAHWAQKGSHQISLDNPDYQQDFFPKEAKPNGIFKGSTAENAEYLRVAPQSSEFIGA
- testName: CellTiter-Glo cell viability, Ba/F3 EGFR L858R/T790M/C797S cells
- Format: cell-based, murine
- measurementConditions: 72 hours, read-out: Ba/F3 EGFR mutant cell (IC50, nM) L/T/C
Please keep in mind that the values are log10 of GI50 expressed in nM.

Requested read-out: log10(GI50). Entry: CCc1cc(Nc2ncc(Br)c(Nc3cccc(OC)c3NS(C)(=O)=O)n2)c(OC)cc1N1CCC(N2CCN(C)CC2)CC1 [Example C22] 1.40
